Tested on: XIP peptide (Xip251-270)
Assay: small-molecule binders of XIP peptide, primary screen, biochemical, small-molecule microarray, fluorescence 635/667 nm, 0.5 µg/mL protein (AID 1183)
Conditions: small-molecule microarray binding, fluorescence 635 nm; higher = more signal
Parameter: composite z-score. Scope: all listed entries.
// no unit, no text: just the number

Please review the entries below; each comes with its answer.
CCCC=C(CCC)[C@@H](NC(=O)c1ccco1)c1ccc(C(=O)OC)cc1 :: 0.585
CN(C)C(=O)[C@]1(Cc2ccccc2CN=[N+]=[N-])N=C(c2ccc(OCCCO)cc2)O[C@@H]1c1ccccc1N=[N+]=[N-] :: 0.624
O=C(NCCO)C1=C[C@H](Oc2ccccc2I)[C@@H](O)[C@H](NCc2ccc(F)cc2)C1 :: -0.875
C/C=C/CN(C(=O)C#Cc1ccccc1)[C@H](CO[Si](C)(C)C(C)(C)C)c1ccccc1 :: -0.109
COC(=O)[C@@]1(Cc2ccc(F)cc2)[C@H]2c3cc(C(=O)N(C)C)n(CCn4cc([N+](=O)[O-])nc4C)c3C[C@H]2CN1C(=O)c1ccccc1 :: 0.5
CN(C)CCCCNC(=O)[C@H]1C[C@H]2C(=O)N[C@@H](Cc3ccccc3)C(=O)N2[C@H]1c1cccc(OCCO)c1 :: -0.0022
CN(C)C(=O)[C@@]1(CCS(=O)(=O)c2ccccc2)N=C(c2ccc(OCCCO)cc2)O[C@H]1c1ccccc1N=[N+]=[N-] :: 0.723
CC(C)CNC(=O)[C@@]1(C)c2ccccc2C(=O)N(Cc2cc(F)cc(C(F)(F)F)c2)[C@H]1c1ccc(CO)cc1 :: 0.467
COCC(=C=CC[C@@H](O)c1cccc(OCCO)c1)C[C@@H](O)COCc1ccccc1 :: 0.0674
C=CC[C@@]12N=C(c3ccc(OCCCO)cc3)O[C@@H]1c1ccccc1N(Cc1ccccc1)C2=O :: 0.797

For the molecule shown here, COc1ccc(C#Cc2ccc3c(c2)[C@]2(C(=O)N3)[C@H](c3ccc(OCCO)cc3)N3[C@H](c4ccccc4)[C@H](c4ccccc4)OC(=O)[C@H]3[C@@H]2C(=O)O)cc1 , give the reported composite z-score.
0.327

---

Assay: fission yeast growth modulation, primary screen, strain 972, OD600, 24 h, no modulator (AID 1090);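 note: basal condition with compound alone and no growth modifier present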
Conditions: S. pombe 972 growth, called active from +8 up or from −8 down
The source made the active and inactive calls.
Return exactly one item of active, inactive

Answered examples (5):
COCCOC(=O)N1C(=O)[C@@]2(c3ccccc31)[C@H](c1ccc(OCCO)cc1)N1[C@H](c3ccccc3)[C@H](c3ccccc3)OC(=O)[C@H]1[C@@H]2C(=O)N1CCN(c2ncccn2)CC1 :: inactive
CN(C)CCCNC(=O)[C@@]1(Cc2ccccc2I)c2ccccc2C(=O)N(Cc2ccccc2)[C@H]1c1ccc(CO)cc1 :: active
C=CCC(OC(C)=O)[C@@H]1[C@@H](N(Cc2cc3ccccc3o2)C(=O)c2cccc3ccccc23)c2cc(OCCCO)ccc2N1C(=O)c1ccc2ccccc2c1 (stereo not given in full) :: inactive
COCCOC(=O)N1C(=O)[C@@]2(c3cc(C#CCNC(N)=O)ccc31)[C@H](C(=O)NC[C@H](O)c1ccccc1)[C@H]1C(=O)O[C@H](c3ccccc3)[C@H](c3ccccc3)N1[C@@H]2c1ccc(OCCO)cc1 :: inactive
C=C(CCCC)C(=O)CC[C@H](OC(C)=O)c1ccccc1OCCO :: inactive

Just curious, what result did CCCCNC(=O)c1ccc(C#C[Si](C)(C)C)c(OC(C)=O)c1 get here?
inactive

Just curious, what result did CCCCC=C[C@@H](NC(=O)c1ccc(C(F)(F)F)cc1)c1ccccc1 get here?
active

Just curious, what result did CCOC(=O)C[C@H]1[C@H](OC(=O)c2ccc(-c3ccccc3)cc2)[C@@H](NC(=O)CC(C)C)c2cc(OCCCO)ccc2N1C(=O)Cc1ccc(OC)cc1 get here?
inactive

Just curious, what result did CCCCCCCCCCC(O)C1C=CC2C(=O)N(C)C(=O)C2N1N1CCCCC1 (stereo not given) get here?
inactive

Just curious, what result did CC(C)[C@@H](C(=O)O)n1cc(-c2ccccc2)nn1 get here?
inactive

Just curious, what result did Cc1ccc(S[C@]2(C(=O)NCCN3CCOCC3)CC(=O)N(C3CCCCC3)[C@@H]2c2ccc(CO)cc2I)cc1 get here?
inactive
